This collection of values is drawn from patent US10399989B2.

Tested on: OCI-Ly10 human DLBCL cells
Experiment: OCI-Ly10 anti-proliferative activity (Resazurin, 72 h)
Assay type: cell-based
Details: Homo sapiens, OCI-Ly10, 72 h, read-out: Proliferation OCI-Ly10-IC50
experimental-readout: IC50

Worked cases, IC50 given:
{"compound": "COc1ccccc1C(=O)NCc1ccc(-c2nn(C3C=CCCC3)c3ncnc(N)c23)cc1 (stereo not shown) [Example 49]", "reported-measurement": "10 to 100 nM"}
{"compound": "Nc1ncnc2c1c(-c1ccc(CNC(=O)c3cccc4cccnc34)cc1)nn2C1CCCC1 [Example 70]", "reported-measurement": "100 to 1000 nM"}
{"compound": "COc1ccc(Cl)cc1C(=O)NCc1ccc(-c2nn(C3CCCC3)c3ncnc(N)c23)cc1 [Example 11]", "reported-measurement": "10 to 100 nM"}
{"compound": "COc1ccccc1C(=O)NCc1ccc(-n2nc(C3CCCC3)c3ncnc(N)c32)cc1 [Example 38]", "reported-measurement": "10 to 100 nM"}
{"compound": "COc1ccccc1C(=O)NCc1ccc(-c2nn(C3CCC(OC)CC3)c3ncnc(N)c23)cc1 (stereo not shown) [Example 39]", "reported-measurement": "10 to 100 nM"}
{"compound": "COc1ccccc1C(=O)NCc1ccc(-c2nn(C3CCCC3)c3ncnc(N)c23)cc1C [Example 89]", "reported-measurement": "100 to 1000 nM"}
{"compound": "COc1ccc(C)cc1C(=O)NCc1ccc(-c2nn(C3CCCC3)c3ncnc(N)c23)cc1 [Example 12]", "reported-measurement": "10 to 100 nM"}
{"compound": "CNC1CCC(n2nc(-c3ccc(CNC(=O)c4ccccc4OC)cc3)c3c(N)ncnc32)CC1 (stereo not shown) [Example 28]", "reported-measurement": "100 to 1000 nM"}

Here is the next item to consider.
Quick check: IC50 of COc1cc(Cl)ccc1C(=O)NCc1ccc(-c2nn(C3CCCC3)c3ncnc(N)c23)cc1 [Example 9] ?
100 to 1000 nM

---

Test system: OCI-Ly10 human DLBCL cells
Test: OCI-Ly10 anti-proliferative activity (Resazurin, 72 h)
Format: cell-based
Settings: read-out: Proliferation OCI-Ly10-IC50
Consider the following compounds and their measured IC50 readings.

{"compound": "COc1ccccc1C(=O)NCc1ccc(-c2nn(C3CCC(C)(O)CC3)c3ncnc(N)c23)cc1 (single isomer, unassigned) [Example 92]", "target-desc": "OCI-Ly10 human DLBCL cells", "experimental-readout": "IC50", "reported-measurement": "10 to 100 nM"}
{"compound": "COc1ccccc1C(=O)NCc1ccc(-c2nn(C3CCC(C(=O)N(C)C)CC3)c3ncnc(N)c23)cc1 (single isomer, unassigned; isomer 1) [33-isomer 1]", "target-desc": "OCI-Ly10 human DLBCL cells", "experimental-readout": "IC50", "reported-measurement": "10 to 100 nM"}
{"compound": "COc1ccccc1C(=O)NCc1ccc(-c2nn(C3CCC(O)CC3)c3ncnc(N)c23)cc1 (single isomer, unassigned) [Example 23-isomer1]", "target-desc": "OCI-Ly10 human DLBCL cells", "experimental-readout": "IC50", "reported-measurement": "100 to 1000 nM"}
{"compound": "COc1ccc(F)cc1C(=O)NCc1ccc(-c2nn(C3CCC(C)(O)CC3)c3ncnc(N)c23)cc1 (single isomer, unassigned)", "target-desc": "OCI-Ly10 human DLBCL cells", "experimental-readout": "IC50", "reported-measurement": "10 to 100 nM"}
{"compound": "COc1ccccc1C(=O)NCc1ccc(-c2nn(C3CCC(C)(O)CC3)c3ncnc(N)c23)cc1 (single isomer, unassigned) [Example 91]", "target-desc": "OCI-Ly10 human DLBCL cells", "experimental-readout": "IC50", "reported-measurement": "100 to 1000 nM"}

Here is the next item to consider.
Quick check: IC50 of COc1ccccc1C(=O)NCc1ccc(-c2nn(C3CCC(O)CC3)c3ncnc(N)c23)cc1 (single isomer, unassigned) [Example 23-isomer2] ?
10 to 100 nM

---

Consider the following compounds and their measured IC50 readings.
Target: BTK^WT (Homo sapiens (Human), UniProt Q06187)
Sequence (Q06187 whole entry): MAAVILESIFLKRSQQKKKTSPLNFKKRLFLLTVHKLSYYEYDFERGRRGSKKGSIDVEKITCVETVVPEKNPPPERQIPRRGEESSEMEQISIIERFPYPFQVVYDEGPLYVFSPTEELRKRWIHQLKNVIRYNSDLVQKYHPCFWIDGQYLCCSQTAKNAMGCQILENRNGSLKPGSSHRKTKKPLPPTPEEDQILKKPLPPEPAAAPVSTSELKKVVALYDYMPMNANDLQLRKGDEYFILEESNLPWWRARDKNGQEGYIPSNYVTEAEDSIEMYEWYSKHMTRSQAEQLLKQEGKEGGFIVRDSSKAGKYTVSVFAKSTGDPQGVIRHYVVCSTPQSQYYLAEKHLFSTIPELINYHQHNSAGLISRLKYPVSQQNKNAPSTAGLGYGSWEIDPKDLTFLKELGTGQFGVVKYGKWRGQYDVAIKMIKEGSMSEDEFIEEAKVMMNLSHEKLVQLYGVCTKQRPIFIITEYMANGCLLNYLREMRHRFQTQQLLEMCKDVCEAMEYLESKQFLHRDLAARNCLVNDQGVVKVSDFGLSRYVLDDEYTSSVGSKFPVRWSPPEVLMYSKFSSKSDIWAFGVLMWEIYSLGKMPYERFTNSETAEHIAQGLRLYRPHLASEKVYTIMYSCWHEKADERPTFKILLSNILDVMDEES
Experiment: BTK^WT binding affinity (TR-FRET, LanthaScreen)
Details: TR-FRET binding, 5 h incubation; read-out: BTK^WT IC50

Worked cases, IC50 given:
{"compound": "CCOc1ccccc1C(=O)NCc1ccc(-c2nn(C3CCCC3)c3ncnc(N)c23)cc1", "reported-measurement": "≤ 10 nM"}
{"compound": "COc1ccccc1C(=O)NCc1ccc(-c2nn(C3CCC(C)C3)c3ncnc(N)c23)cc1 (centres unmarked)", "reported-measurement": "≤ 10 nM"}
{"compound": "COc1ccccc1C(=O)NCc1ccc(-c2nn([C@H]3C=C[C@H](O)C3)c3ncnc(N)c23)cc1", "reported-measurement": "≤ 10 nM"}

Quick check: IC50 of COc1ccccc1C(=O)NCc1ccc(-c2nn([C@@H]3C[C@@H](O)C4CC43)c3ncnc(N)c23)cc1 (some centres unmarked) ?
≤ 10 nM

Now consider "CC(C)(C)n1nc(-c2ccc(CNC(=O)c3cc4ccccc4o3)cc2)c2c(N)ncnc21" .
1000 to 10000 nM

Now consider "COc1ccc(F)cc1C(=O)NCc1ccc(-c2nn(C(C)(C)C)c3ncnc(N)c23)cc1" .
≤ 10 nM

Now consider "COc1ccccc1C(=O)NCc1ccc(-c2nn([C@@H]3C=C[C@H](O)C3)c3ncnc(N)c23)cc1" .
≤ 10 nM

Now consider Nc1ncnc2c1c(-c1ccc(CNC(=O)C3CNc4ccccc4O3)cc1)nn2C1CCCC1 (centres unmarked) .
> 10000 nM

---

Tested on: OCI-Ly10 human DLBCL cells
Assay: OCI-Ly10 anti-proliferative activity (Resazurin, 72 h)
Type: cell-based
Conditions: Homo sapiens, OCI-Ly10, 72 h, read-out: Proliferation OCI-Ly10-IC50
pIC50: −log10 of the molar value.
experimental-readout: pIC50

{"compound": "COc1ccc(F)cc1C(=O)NCc1ccc(-c2nn(C3CCCC3)c3ncnc(N)c23)cc1F", "pIC50": "7.00 to 8.00"}
{"compound": "CC(C)Oc1ccccc1C(=O)NCc1ccc(-c2nn(C3CCCC3)c3ncnc(N)c23)cc1", "pIC50": "5.00 to 6.00"}
{"compound": "COc1ccccc1C(=O)NCc1ccc(-c2nn([C@H]3C=C[C@H](n4ccnn4)C3)c3ncnc(N)c23)cc1", "pIC50": "6.00 to 7.00"}

Item: "COc1cc(C)ccc1C(=O)NCc1ccc(-c2nn(C3CCCC3)c3ncnc(N)c23)cc1" Test system: OCI-Ly10 human DLBCL cells Read-out: pIC50 Value: ?
6.00 to 7.00

---

Here we list molecules with their recorded IC50 when tested on EGFR (Homo sapiens (Human), UniProt P00533).
Sequence (P00533 25-1210): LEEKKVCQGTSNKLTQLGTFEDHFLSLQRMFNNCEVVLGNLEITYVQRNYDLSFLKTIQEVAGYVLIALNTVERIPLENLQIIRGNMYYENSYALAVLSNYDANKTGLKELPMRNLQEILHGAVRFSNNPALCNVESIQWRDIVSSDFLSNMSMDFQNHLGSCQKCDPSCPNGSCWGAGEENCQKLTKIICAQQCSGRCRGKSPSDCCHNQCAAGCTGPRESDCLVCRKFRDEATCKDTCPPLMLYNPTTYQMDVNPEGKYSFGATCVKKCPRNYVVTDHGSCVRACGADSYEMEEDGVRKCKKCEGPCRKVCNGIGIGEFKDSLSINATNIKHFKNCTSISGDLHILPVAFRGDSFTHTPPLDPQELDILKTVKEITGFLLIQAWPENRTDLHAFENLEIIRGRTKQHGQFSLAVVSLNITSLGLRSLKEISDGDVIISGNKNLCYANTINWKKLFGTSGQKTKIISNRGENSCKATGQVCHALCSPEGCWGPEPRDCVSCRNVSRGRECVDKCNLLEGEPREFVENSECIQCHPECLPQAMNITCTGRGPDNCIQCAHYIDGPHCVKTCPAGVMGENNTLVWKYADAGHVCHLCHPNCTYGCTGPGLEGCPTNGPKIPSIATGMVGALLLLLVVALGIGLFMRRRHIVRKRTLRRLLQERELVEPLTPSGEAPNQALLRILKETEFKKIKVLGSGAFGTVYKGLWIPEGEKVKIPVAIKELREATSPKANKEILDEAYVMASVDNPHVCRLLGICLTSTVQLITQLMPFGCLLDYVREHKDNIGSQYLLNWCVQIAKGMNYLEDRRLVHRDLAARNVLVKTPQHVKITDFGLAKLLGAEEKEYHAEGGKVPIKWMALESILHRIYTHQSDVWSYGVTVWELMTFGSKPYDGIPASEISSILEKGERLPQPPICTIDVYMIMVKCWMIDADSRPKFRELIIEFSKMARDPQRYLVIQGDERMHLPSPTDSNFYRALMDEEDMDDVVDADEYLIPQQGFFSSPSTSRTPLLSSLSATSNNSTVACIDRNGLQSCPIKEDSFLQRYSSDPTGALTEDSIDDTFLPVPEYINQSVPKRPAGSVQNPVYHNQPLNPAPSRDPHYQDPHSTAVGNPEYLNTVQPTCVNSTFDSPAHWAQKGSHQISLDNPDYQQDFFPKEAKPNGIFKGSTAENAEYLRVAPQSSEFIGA

{"molecule": "COc1ccc(F)cc1C(=O)NCc1ccc(-c2nn(C3CCC(C)(O)CC3)c3ncnc(N)c23)cc1 (single isomer, unassigned) [Example 94]", "IC50": "100 to 1000 nM"}
{"molecule": "COc1ccccc1C(=O)NCc1ccc(-c2nn([C@@H]3CC[C@H](O)C3)c3ncnc(N)c23)cc1 (relative stereo) [Example 24]", "IC50": "100 to 1000 nM"}
{"molecule": "COc1cccc(F)c1C(=O)NCc1ccc(-c2nn(C3CCCC3)c3ncnc(N)c23)cc1 [Example 16]", "IC50": "1000 to 10000 nM"}
{"molecule": "COc1ccccc1C(=O)NCc1ccc(-c2nn(C3CCCC3)c3ncnc(N)c23)c(C)c1 [Example 79]", "IC50": "1000 to 10000 nM"}

Item: COc1ccc(C)cc1C(=O)NCc1ccc(-c2nn(C3CCCC3)c3ncnc(N)c23)cc1 [Example 12] Test system: EGFR (Homo sapiens (Human), UniProt P00533) Read-out: IC50 Value: ?
1000 to 10000 nM

Now consider COc1ccccc1C(=O)NCc1ccc(-c2nn(C3CCCOC3)c3ncnc(N)c23)cc1 (stereo not drawn) [Example 34] .
1000 to 10000 nM

Now consider COc1ccccc1C(=O)NCc1ccc(-c2nn([C@H]3C=C[C@@H](OC(=O)C(C)(C)C)C3)c3ncnc(N)c23)cc1 [Example 48] .
1000 to 10000 nM

Now consider CCOC(=O)C1CCC(n2nc(-c3ccc(CNC(=O)c4ccccc4OC)cc3)c3c(N)ncnc32)CC1 (stereo not drawn) [Example 32] .
100 to 1000 nM

Now consider COc1ccccc1C(=O)NCc1ccc(-c2nn([C@H]3C=C[C@H](N)C3)c3ncnc(N)c23)cc1 [Example 59] .
1000 to 10000 nM

Now consider COc1ccc(F)cc1C(=O)NCc1ccc(-c2nn([C@H]3C=C[C@H](O)C3)c3ncnc(N)c23)cc1 [Example 53] .
1000 to 10000 nM
